- System: Azole-resistant Candida albicans ATCC 10231
- Assay summary: Microdilution checkerboard assay of K20 and azoles
- Type: cell-based
- Study conditions: Candida albicans, ATCC10231; checkerboard, PDB-CA; read-out: MIC, azole alone
Recorded MIC by entry
# unit: µg/mL | format: bare number

>>> assay_value("CC1(C)CCC(Cc2ccc(Cl)cc2)C1(O)Cn1cncn1 (stereo not shown)")
2.5

Here is the next item to consider.
What MIC appears in the records for this compound with Azole-resistant Candida albicans ATCC 10231? CC(=O)N1CCN(c2ccc(OCC3COC(Cn4ccnc4)(c4ccc(Cl)cc4Cl)O3)cc2)CC1 (stereo not shown)
24

====

Reported MIC by item:
- System: Azole-resistant Candida albicans ATCC 10231
- Assay summary: Microdilution checkerboard assay of K20 and azoles
- Format: cell-based
- Study conditions: Candida albicans, ATCC10231; checkerboard, PDB-CA; read-out: MIC, azole alone
Number only, in µg/mL; omit the unit.

>>> assay_value("Clc1ccc(C(Cn2ccnc2)OCc2ccsc2Cl)c(Cl)c1 (stereo not shown)")
0.25

I'd like to know its MIC. The compound in question is COC(=O)N(OC)c1ccccc1COc1ccn(-c2ccc(Cl)cc2)n1
6

====

Reported MIC of azole in combination with K20 by item:
- Tested on: Azole-resistant Candida albicans ATCC 10231
- Assay summary: Microdilution checkerboard assay of K20 and azoles
- Type: cell-based
- Study conditions: checkerboard; combined with K20
Enter your answer as a number in µg/mL; do not include the unit.

Some solved cases for reference:
>>> assay_value("OC(Cn1cncn1)(Cn1cncn1)c1ccc(F)cc1F [fluconazole]")
3
>>> assay_value("CC(=O)N1CCN(c2ccc(OCC3COC(Cn4ccnc4)(c4ccc(Cl)cc4Cl)O3)cc2)CC1 (stereo not drawn) [ketoconazole]")
1.5
>>> assay_value("Clc1ccc(C(Cn2ccnc2)OCc2ccsc2Cl)c(Cl)c1 (stereo not drawn) [tioconazole]")
0.03
>>> assay_value("C[C@@H](c1ncncc1F)[C@](O)(Cn1cncn1)c1ccc(F)cc1F [voriconazole]")
0.125

Which MIC of azole in combination with K20 value is on record for CC1(C)CCC(Cc2ccc(Cl)cc2)C1(O)Cn1cncn1 (stereo not drawn) [metconazole] ?
0.15

Consider the compound shown here: CC[C@@H]([C@H](C)O)n1ncn(-c2ccc(N3CCN(c4ccc(OC[C@@H]5CO[C@@](Cn6cncn6)(c6ccc(F)cc6F)C5)cc4)CC3)cc2)c1=O [posaconazole] What is its recorded MIC of azole in combination with K20?
0.09

Record request: MIC of azole in combination with K20 value, item COC(=O)N(OC)c1ccccc1COc1ccn(-c2ccc(Cl)cc2)n1 [pyraclostrobin]
0.75

MIC of azole in combination with K20 for CCC(C)n1ncn(-c2ccc(N3CCN(c4ccc(OCC5COC(Cn6cncn6)(c6ccc(Cl)cc6Cl)O5)cc4)CC3)cc2)c1=O (stereo not drawn) [itraconazole] ?
0.18

Look at this compound and give its reported MIC of azole in combination with K20. Clc1ccccc1C(c1ccccc1)(c1ccccc1)n1ccnc1 [chlotrimazole]
0.15
